# Tested on: crabgrass, large
# assayName: Test A preemergence
# Type: in vivo, Digitaria sanguinalis
# cond: preemergence, 125 g ai/ha, visual injury approx. 10 days after treatment
reportedMetric: Crabgrass, Large plant response rating (0 to 100 scale)

// known answers, use as guide
O=C(NC1CC1)c1cc(Cl)n(Cc2cccc(C(F)(F)F)c2)n1 = 10
CCCNC(=O)c1cc(COC)n(Cc2cc(C(F)(F)C(F)(F)F)nn2C)n1 = 90
Cc1cc(C(=O)NC(C)C)nn1Cc1ccnc(C(F)(F)F)c1 = 100
CCCc1cc(C(=O)NOCC)nn1Cc1ccnc(C(F)(F)F)c1 = 100
CCNC(=O)c1cc(CC)n(Cc2ccnc(C(F)(F)F)c2)n1 = 100
O=C(NCC(F)(F)F)c1cc(I)n(Cc2cccc(C(F)(F)F)c2)n1 = 10

Field Crabgrass, Large plant response rating (0 to 100 scale) (crabgrass, large), entry CCc1cc(C(=O)NC2CC2)nn1Oc1cccc(OC(F)(F)F)c1 : 80
